Every entry's value here was drawn from ChEMBL document CHEMBL5154789.

test.target: Fibroblast growth factor receptor 4 (Homo sapiens, UniProt P22455)
Sequence (P22455 whole entry, the tested form may be a part): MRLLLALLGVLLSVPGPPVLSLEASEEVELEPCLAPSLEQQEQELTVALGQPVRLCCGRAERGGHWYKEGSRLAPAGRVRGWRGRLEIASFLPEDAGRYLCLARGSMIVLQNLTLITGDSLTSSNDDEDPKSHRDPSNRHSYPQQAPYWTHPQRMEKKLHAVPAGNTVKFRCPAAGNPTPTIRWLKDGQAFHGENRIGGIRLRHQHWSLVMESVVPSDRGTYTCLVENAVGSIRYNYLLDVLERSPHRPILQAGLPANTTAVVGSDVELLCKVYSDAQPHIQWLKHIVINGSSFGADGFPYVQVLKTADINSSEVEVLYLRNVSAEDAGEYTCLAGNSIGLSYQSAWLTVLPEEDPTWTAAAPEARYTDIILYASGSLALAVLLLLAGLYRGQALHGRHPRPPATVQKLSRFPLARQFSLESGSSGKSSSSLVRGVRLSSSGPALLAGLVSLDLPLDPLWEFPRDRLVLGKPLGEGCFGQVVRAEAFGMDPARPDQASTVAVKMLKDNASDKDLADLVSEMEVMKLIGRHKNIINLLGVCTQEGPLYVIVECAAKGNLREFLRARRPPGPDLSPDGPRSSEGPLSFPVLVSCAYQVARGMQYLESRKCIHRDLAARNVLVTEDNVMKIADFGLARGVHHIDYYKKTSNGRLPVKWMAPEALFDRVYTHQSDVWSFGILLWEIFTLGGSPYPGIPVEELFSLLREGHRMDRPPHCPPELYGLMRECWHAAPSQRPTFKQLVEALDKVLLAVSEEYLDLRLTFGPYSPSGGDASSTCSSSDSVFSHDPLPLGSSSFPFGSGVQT
measurement.protocol: Inhibition of N-terminal 6His-tagged FGFR4 (unknown orgin) (445 to 753 residues) expressed in Rosetta (NEB) cells using Tyr 04 peptide as substrate incubated for 1 hr in presence of 150 uM ATP by FRET based Z'-LYTE assay
The reader will find reported IC50 values listed item by item below.

molecule=C=CC(=O)Nc1cccc(CC)c1Nc1n[nH]c2ccc(O[C@H](C)c3c(Cl)cncc3Cl)cc12 obs_value="> 10 µM"
molecule=C=CC(=O)N[C@H]1CCOC[C@H]1Nc1n[nH]c2ccc(O[C@H](C)c3c(Cl)cncc3Cl)cc12 obs_value="> 10 µM"

For this compound ( C=CC(=O)Nc1ccc(OC)cc1Nc1n[nH]c2ccc(O[C@H](C)c3c(Cl)cncc3Cl)cc12 ), measured IC50 is > 10 µM
